# Experiment Description: Stability Study 1: storage stability of a formulation comprising the disodium salt, HPLC
# Assay type: physicochemical
# Assay Setup: after 1 month storage; 25° C., heading 30° C.
Readout Type: % weight in formulation after 1 month (%)

1) CC(C)=CCC/C(C)=C/CC/C(C)=C/C[S+]([O-])C[C@H](NC(=O)CCC(=O)O)C(=O)O (stereo partly shown) : 0.031
2) COC(=O)c1ccc(O)cc1 : 0.17
3) CCCOC(=O)c1ccc(O)cc1 : 0.033
4) CC(C)=CCC/C(C)=C/CC/C(C)=C/CSC[C@H](NC(=O)CCC(=O)O)C(=O)O : 2.97
